This collection of values is drawn from the kinase profiling compilation of Christmann-Franck et al. (2016).

target.desc: NEK2 (human)
assay.text: radiometric filter-binding kinase assay
recorded.conditions: compound 1.0 µM
Please assign N whenever residual activity is at or above 90%, and Y whenever it is below.

compound	class
NC(=O)c1cc2c(-c3cccc(-c4ccccc4)c3)cnc(N)c2s1	Y
COc1ccc2c(c1)c1c3c(c4c5ccccc5n(C)c4c1n2CC(O)CN(C)C)C(=O)NC3=O (stereo not drawn)	Y
C=CC(=O)N1CCC[C@@H](n2nc(-c3ccc(Oc4ccccc4)cc3)c3c(N)ncnc32)C1	N
NC(=O)Nc1ccc2c(c1)/C(=C/c1cc(-c3cccnc3)c[nH]1)C(=O)N2	Y
CN1C(=O)[C@@H](Cc2c[nH]c3ccccc23)NC1=S	Y
O=C1Nc2nc(-c3c(O)cccc3OCC3CC3)cc(C3CCCNC3)c2CO1 (stereo not drawn)	Y
COc1cc(C(=O)N2CCOCC2)c(F)cc1Nc1ncc(C(F)(F)F)c(NC2CC2)n1	N
Cc1cccc(Nc2nn(C)c3ncnc(N)c23)c1	N
O=C(N[C@@H](COc1ccc2[nH]c(=O)[nH]c2c1)c1ccccc1)c1cccn(Cc2ccc(F)c(F)c2)c1=O	N
CNc1nc(-c2ccc3c(N)n[nH]c3c2)cc(N2C[C@@H](C(=O)NC3CCCCC3)CC[C@H]2C)n1	N
CC1=C(CO)C(=O)O[C@@H]([C@@H](C)[C@H]2CC[C@H]3[C@@H]4C[C@H]5O[C@]56[C@@H](O)C=CC(=O)[C@]6(C)C4CC[C@]23C)C1 (stereo partly drawn)	N
NS(=O)(=O)OC[C@@H]1C[C@@H](n2ccc3c(N[C@H]4CCc5ccccc54)ncnc32)C[C@@H]1O	N
